# MEASUREMENT TARGET: T1, recombinant human GPC3 protein (human, UniProt P51654 25-563)
# T1 construct: also called human GPC3 full-length protein; recombinant GPC3 protein
# PROTOCOL SUMMARY: BLI (Octet), antibody on Protein A probe
MEASURED PARAMETER: pKd
Scale: pKd equals -log10([C]), with [C] in mol/L.

Below: 2 binders and their reported pKd.
BINDER	pKd
h49G8VHv6VKv3 (antibody, V domains shown, Humanized 49G8) VH: QVQLVQSGAEVKKPGSSVKVSCKASGYTFADYEIHWVRQAPGQGLEWMGAIHPGSGGTAYAQKFQGRVTLTADESSTTAYMELSSLRSEDTAVYYCTRYYSFAYWGQGTLVTVSS VL: DVVMTQSPLSLPVTPGEPASISCRSSQSIVHSNGNTYLEWYLQKPGQSPQLLIYKVSNRFSGVPDRFSGSGSGTDFTLKISRVEAEDVGVYFCLQVTHVPLTFGQGTKLEIK	8.85
h49G8VHv6VKv6 (antibody, V domains shown, Humanized 49G8) VH: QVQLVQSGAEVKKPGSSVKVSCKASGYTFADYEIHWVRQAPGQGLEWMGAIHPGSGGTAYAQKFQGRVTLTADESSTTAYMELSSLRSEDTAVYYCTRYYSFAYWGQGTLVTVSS VL: DVVMTQSPLSLPVTPGEPASISCRSSQSIVHSNANTYLEWYLQKPGQSPQLLIYKVSNRFSGVPDRFSGSGSGTDFTLKISRVEAEDVGVYFCLQVTHVPLTFGQGTKLEIK	8.62

Now turn to the next binder.
Suppose we examine the binder 49G8 (antibody, V domains shown, Chimeric human IgG1; also called 49G8 chimeric antibody; Mab 49G8) VH: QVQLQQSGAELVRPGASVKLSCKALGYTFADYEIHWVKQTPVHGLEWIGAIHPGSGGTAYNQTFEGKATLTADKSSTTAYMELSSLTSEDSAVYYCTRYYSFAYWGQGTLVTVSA VL: DVVMTQTPLSLPVSLGDQASISCRSSQSIVHSNGNTYLEWYLQKPGQSPKLLIYKVSNRFSGVPDRFSGSGSGTDFTLKISRVEAEDLGVYFCLQVTHVPLTFGAGTKLELK ; what pKd value has been reported?
8.93

These entries and their values trace back to patent US20240043568A1.
